Below, each entry is listed with its recorded EC50.
tested on: HCV pseudoparticles; test: HCV pseudoparticle infection assay (luciferase reporter, Huh7 cells); assay type: cell-based, HCV (genotype 1b E1 and E2 envelope); conditions: Hepatitis C virus, genotype 1b, Huh-7, 48 h, HCV pseudoparticles (genotype 1b), luciferase activity 2 days after infection, class
measured property: EC50

* O=C(NS(=O)(=O)c1ccc(Nc2nc(NC3(c4ccc(Cl)cc4)CC3)nc(OCC(F)(F)F)n2)cc1)c1ccccc1 | 1 to 5 µM
* O=C(NS(=O)(=O)CCNC(=O)C1CC1)c1ccc(Nc2nc(NC3(c4ccc(Cl)cc4)CC3)nc(OCC(F)(F)F)n2)cc1 | 0.0005 to 0.1 µM
* CN(C)S(=O)(=O)NC(=O)C(C)(C)CNC(=O)c1ccc(Nc2nc(NC3(c4ccc(Cl)cc4)CC3)nc(OCC(F)(F)F)n2)cc1 | 0.0005 to 0.1 µM
* O=C(CCCNC(=O)c1ccc(Nc2nc(NC3(c4ccc(Cl)cc4)CC3)nc(OCC(F)(F)F)n2)cc1)NS(=O)(=O)C1CC1 | 0.0005 to 0.1 µM
* C[C@@H](NC(=O)CCCNC(=O)c1ccc(Nc2nc(NC3(c4ccc(Cl)cc4)CC3)nc(OCC(F)(F)F)n2)cc1)C(=O)NS(C)(=O)=O | 0.0005 to 0.1 µM
* CC(C)(C)OC(=O)N1C[C@@H](NC(=O)c2ccc(Nc3nc(NC4(c5ccc(Cl)cc5)CC4)nc(OCC(F)(F)F)n3)cc2)C[C@@H]1C(=O)NC1(C(=O)NS(=O)(=O)C2CC2)CC1 | 0.0005 to 0.1 µM
* CC(C)S(=O)(=O)NC(=O)C(C)(C)CNC(=O)c1ccc(Nc2nc(NC3(c4ccc(Cl)cc4)CC3)nc(OCC(F)(F)F)n2)cc1 | 0.0005 to 0.1 µM
* CC(C)(C)OC(=O)N1CCC(C(=O)NS(=O)(=O)CCNC(=O)c2ccc(Nc3nc(NC4(c5ccc(Cl)cc5)CC4)nc(OCC(F)(F)F)n3)cc2)CC1 | 0.0005 to 0.1 µM
* CC(C)(C)OC(=O)N1CCC[C@H]1C(=O)NCCS(=O)(=O)NC(=O)c1ccc(Nc2nc(NC3(c4ccc(Cl)cc4)CC3)nc(OCC(F)(F)F)n2)cc1 | 0.0005 to 0.1 µM
* C=CS(=O)(=O)NC(=O)C(C)(C)CNC(=O)c1ccc(Nc2nc(NC3(c4ccc(Cl)cc4)CC3)nc(OCC(F)(F)F)n2)cc1 | 0.0005 to 0.1 µM
* Cc1cccc(C(=O)N2CCN(c3nc(Nc4ccc(C(=O)NS(=O)(=O)C5(CN(C)C)CC5)cc4)nc(OCC(F)(F)F)n3)CC2)c1 | 1 to 5 µM
* CN(C)CC1(S(=O)(=O)NC(=O)c2ccc(Nc3nc(OCC(F)(F)F)nc(N4CCN(S(=O)(=O)c5cccc(F)c5)CC4)n3)cc2)CC1 | 1 to 5 µM
* CC(C)(C)OC(=O)N1CCC(C(=O)NCCS(=O)(=O)NC(=O)c2ccc(Nc3nc(NC4(c5ccc(Cl)cc5)CC4)nc(OCC(F)(F)F)n3)cc2)CC1 | 0.0005 to 0.1 µM
* C=CS(=O)(=O)NC(=O)[C@@]1(NC(=O)CCCNC(=O)c2ccc(Nc3nc(NC4(c5ccc(Cl)cc5)CC4)nc(OCC(F)(F)F)n3)cc2)C[C@H]1C1CC1 | 0.0005 to 0.1 µM
* Cn1cnc(C[C@H](NC(=O)c2ccc(Nc3nc(NC4(c5ccc(Cl)cc5)CC4)nc(OCC(F)(F)F)n3)cc2)C(=O)N[C@]2(C(=O)NS(=O)(=O)C3CCC3)C[C@H]2C2CC2)c1 | 0.0005 to 0.1 µM
* C=C[C@@H]1C[C@]1(NC(=O)CCCNC(=O)c1ccc(Nc2nc(NC3(c4ccc(Cl)cc4)CC3)nc(OCC(F)(F)F)n2)cc1)C(=O)NS(=O)(=O)C(C)(C)C | 0.0005 to 0.1 µM
* CCS(=O)(=O)NC(=O)c1ccc(Nc2nc(NC3(c4ccc(Cl)cc4)CC3)nc(OCC(F)(F)F)n2)cc1 | 0.0005 to 0.1 µM
* C=CS(=O)(=O)NC(=O)CCCCNC(=O)c1ccc(Nc2nc(NC3(c4ccc(Cl)cc4)CC3)nc(OCC(F)(F)F)n2)cc1 | 0.0005 to 0.1 µM
* O=C(NS(=O)(=O)C1(CN2CCOCC2)CC1)c1ccc(Nc2nc(NC3(c4ccc(Cl)cc4)CC3)nc(OCC(F)(F)F)n2)cc1 | 0.0005 to 0.1 µM
* CCCC1(S(=O)(=O)NC(=O)C(C)(C)CNC(=O)c2ccc(Nc3nc(NC4(c5ccc(Cl)cc5)CC4)nc(OCC(F)(F)F)n3)cc2)CC1 | 0.0005 to 0.1 µM
* O=C(CN1CCCC1=O)NCC1(C(=O)NS(=O)(=O)c2ccc(Nc3nc(NC4(c5ccc(Cl)cc5)CC4)nc(OCC(F)(F)F)n3)cc2)CC1 | 0.1 to 1 µM
* CNC(=O)NCCS(=O)(=O)NC(=O)c1ccc(Nc2nc(NC3(c4ccc(Cl)cc4)CC3)nc(OCC(F)(F)F)n2)cc1 | 0.0005 to 0.1 µM
* C=C[C@@H]1C[C@]1(NC(=O)C(C)(C)CNC(=O)c1ccc(Nc2nc(NC3(c4ccc(Cl)cc4)CC3)nc(OCC(F)(F)F)n2)cc1)C(=O)NS(=O)(=O)C1CC1 | 0.0005 to 0.1 µM

---

tested on: HCV pseudoparticles; assay: HCV pseudoparticle infection assay (luciferase reporter, Huh7 cells); type: cell-based, HCV (genotype 1b E1 and E2 envelope); settings: Hepatitis C virus, genotype 1b, Huh-7, 48 h, HCV pseudoparticles (genotype 1b), luciferase activity 2 days after infection, class
pEC50: −log10 of the molar value.
Recorded pEC50 by entry
measured property: pEC50

• COc1ccc(S(=O)(=O)N2CCN(c3nc(Nc4ccc(C(=O)NS(=O)(=O)C5(CN(C)C)CC5)cc4)nc(OCC(F)(F)F)n3)CC2)cc1 = 5.30 to 6.00
• O=C(NCCS(=O)(=O)NC(=O)c1ccc(Nc2nc(NC3(c4ccc(Cl)cc4)CC3)nc(OCC(F)(F)F)n2)cc1)c1cccnc1 = 7.00 to 9.30
• C=CS(=O)(=O)NC(=O)CNC(=O)c1ccc(Nc2nc(NC3(c4ccc(Cl)cc4)CC3)nc(OCC(F)(F)F)n2)cc1 = 7.00 to 9.30

---

tested on: HCV pseudoparticles; assay: HCV pseudoparticle infection assay (luciferase reporter, Huh7 cells); assay type: cell-based, HCV (genotype 1b E1 and E2 envelope); details: Hepatitis C virus, genotype 1b, Huh-7, 48 h, HCV pseudoparticles (genotype 1b), luciferase activity 2 days after infection, class
measured property: EC50

- CS(=O)(=O)NC(=O)c1ccc(Nc2nc(NC3(c4ccc(Cl)cc4)CC3)nc(OCC(F)(F)F)n2)cc1 [Example 1002]: 0.5 to 100 nM
- O=C(NS(=O)(=O)C1(CO)CC1)c1ccc(Nc2nc(NC3(c4ccc(Cl)cc4)CC3)nc(OCC(F)(F)F)n2)cc1 [Example 1025]: 0.5 to 100 nM
- O=C(NS(=O)(=O)C1(CN2CCN(c3ccncc3)CC2)CC1)c1ccc(Nc2nc(NC3(c4ccc(Cl)cc4)CC3)nc(OCC(F)(F)F)n2)cc1 [Example 1019]: 0.5 to 100 nM
- CC(C)S(=O)(=O)NC(=O)COc1ccc(C2(Nc3nc(Nc4ccc(C(=O)NCC5(CN6CCCC6)CC5)cc4)nc(OCC(F)(F)F)n3)CC2)cc1 [Example 6000]: 0.5 to 100 nM
- CC(=O)NS(=O)(=O)CCNC(=O)c1ccc(Nc2nc(NC3(c4ccc(Cl)cc4)CC3)nc(OCC(F)(F)F)n2)cc1 [Example 4000]: 0.5 to 100 nM
- Cc1ccccc1S(=O)(=O)NC(=O)c1ccc(Nc2nc(NC3(c4ccc(Cl)cc4)CC3)nc(OCC(F)(F)F)n2)cc1 [Example 8012]: 0.5 to 100 nM
- O=C(CCCNC(=O)c1ccc(Nc2nc(NC3(c4ccc(Cl)cc4)CC3)nc(OCC(F)(F)F)n2)cc1)N[C@]1(C(=O)NS(=O)(=O)C2(F)CC2)C[C@H]1C1CC1 [Example 2044]: 0.5 to 100 nM
- CC(C)S(=O)(=O)NC(=O)[C@H](C)NC(=O)CCCNC(=O)c1ccc(Nc2nc(NC3(c4ccc(Cl)cc4)CC3)nc(OCC(F)(F)F)n2)cc1 [Example 2055]: 0.5 to 100 nM
- Cc1ccccc1C(=O)N1CCN(c2nc(Nc3ccc(C(=O)NS(=O)(=O)C4(CN(C)C)CC4)cc3)nc(OCC(F)(F)F)n2)CC1 [Example 8040]: 1000 to 5000 nM
- CC(C)(CNC(=O)c1ccc(Nc2nc(NC3(c4ccc(Cl)cc4)CC3)nc(OCC(F)(F)F)n2)cc1)C(=O)NC1(C(=O)NS(=O)(=O)C2CC2)CC1 [Example 2095]: 0.5 to 100 nM
- C=C[C@@H]1C[C@]1(NC(=O)CCCCNC(=O)c1ccc(Nc2nc(NC3(c4ccc(Cl)cc4)CC3)nc(OCC(F)(F)F)n2)cc1)C(=O)NS(=O)(=O)C1CCC1 [Example 2026]: 0.5 to 100 nM
- Cc1cccc(S(=O)(=O)N2CCN(c3nc(Nc4ccc(C(=O)NS(=O)(=O)C5(CN(C)C)CC5)cc4)nc(OCC(F)(F)F)n3)CC2)c1 [Example 8032]: 1000 to 5000 nM
